# system: mNPR1-mFc:hBNP complex (mouse; human) (UniProt P16860)
# procedureSummary: SPR Biacore, mAb captured by anti-human Fc, 37C
propertyLabel: 100 nM Ag Bound (RU)
One number for each entry, in RU.

Some solved cases for reference:
mAb22035 (antibody, human IgG4, V domains shown) VH: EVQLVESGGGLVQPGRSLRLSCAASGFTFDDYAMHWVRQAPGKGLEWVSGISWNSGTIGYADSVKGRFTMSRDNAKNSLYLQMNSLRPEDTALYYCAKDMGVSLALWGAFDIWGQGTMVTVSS VL: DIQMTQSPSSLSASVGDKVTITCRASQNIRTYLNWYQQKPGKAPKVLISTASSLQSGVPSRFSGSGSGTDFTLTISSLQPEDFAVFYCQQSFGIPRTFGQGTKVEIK = 1
mAb25508 (antibody, human IgG4, V domains shown) VH: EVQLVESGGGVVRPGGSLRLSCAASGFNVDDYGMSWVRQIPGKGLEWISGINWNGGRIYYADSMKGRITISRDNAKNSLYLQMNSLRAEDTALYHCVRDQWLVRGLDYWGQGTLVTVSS VL: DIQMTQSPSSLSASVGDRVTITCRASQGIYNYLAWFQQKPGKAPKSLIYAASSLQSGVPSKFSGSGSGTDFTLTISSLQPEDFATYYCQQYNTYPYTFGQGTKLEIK = 1

Here's the next entry for you.
Which value of 100 nM Ag Bound (RU) has been reported for mAb25491 (antibody, human IgG4, V domains shown) VH: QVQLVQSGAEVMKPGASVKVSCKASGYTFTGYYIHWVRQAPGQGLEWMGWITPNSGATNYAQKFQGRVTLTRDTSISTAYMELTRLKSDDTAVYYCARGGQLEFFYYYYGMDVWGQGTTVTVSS VL: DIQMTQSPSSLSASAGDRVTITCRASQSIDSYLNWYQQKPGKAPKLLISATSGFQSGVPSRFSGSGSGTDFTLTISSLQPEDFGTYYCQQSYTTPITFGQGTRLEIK in the records? 4
